Target: SF9 affinity purified rat farnesyl protein transferase (Rattus norvegicus, UniProt Q02293+Q04631)
Construct: made in house; host or cells: Sf9 insect cells (baculovirus system inferred from b7)
Test: PFT inhibitory activity (radiolabeled farnesyl pyrophosphate, streptavidin bead assay)
Type: biochemical
Conditions: HEPES buffer pH 7.4 containing 5 mM potassium phosphate; read-out: IC50 (μM) 5 mM K3 PO4 -2
TEST_READOUT: log10 of IC50 (log10 of the value in µM)
Please be aware that the numbers have been log10-transformed from IC50 in µM.

Form field log10 of IC50, entry `C[C@H](Cc1ccccc1)NC(=O)CN(Cc1ccc(OCc2ccccc2)cc1)C(=O)[C@H](Cc1c[nH]cn1)NC(=O)OCc1ccccc1` : -1.74

Form field log10 of IC50, entry Cc1ccc(CN(CC(=O)NCC(C)c2ccccc2)C(=O)[C@H](Cc2c[nH]cn2)NC(=O)OCc2ccccc2)cc1 (stereo partly shown) : -1.82

Form field log10 of IC50, entry CC(CNC(=O)CN(Cc1ccc(N(C)C)cc1)C(=O)[C@H](Cc1c[nH]cn1)NC(=O)OCc1ccccc1)c1ccccc1 (stereo partly shown) : -2.54

Form field log10 of IC50, entry CC(CNC(=O)CN(Cc1ccccc1Cl)C(=O)[C@H](Cc1c[nH]cn1)NC(=O)OCc1ccccc1)c1ccccc1 (stereo partly shown) : -1.37

Form field log10 of IC50, entry `O=C(CN(Cc1ccc(Cl)cc1)C(=O)[C@H](Cc1c[nH]cn1)NC(=O)OCc1ccccc1)NCCOCc1ccccc1` : -0.01

Form field log10 of IC50, entry `CC(C)(CNC(=O)CN(Cc1ccc(OCc2ccccc2)cc1)C(=O)[C@H](Cc1cnc[nH]1)NC(=O)OCc1ccccc1)c1ccccc1` : -2.15

Form field log10 of IC50, entry `O=C(CN(Cc1ccc(OCc2ccccc2)cc1)C(=O)[C@H](Cc1c[nH]cn1)NC(=O)OCc1ccccc1)NCC(c1ccccc1)c1ccccc1` : -1.42

###

Target: SF9 affinity purified rat farnesyl protein transferase (Rattus norvegicus, UniProt Q02293+Q04631)
Construct: made in house; host or cells: Sf9 insect cells (baculovirus system inferred from b7)
Test: PFT inhibitory activity (radiolabeled farnesyl pyrophosphate, streptavidin bead assay)
Assay type: biochemical
Details: without 5 mM potassium phosphate; average obtained by additional tests; read-out: IC50 (μM) Hepes, number in parentheses
For each record, write down the corresponding IC50.
Reply with just the number (in µM).

Form field IC50, entry O=C(CN(Cc1ccc(OCc2ccccc2)cc1)C(=O)[C@H](Cc1c[nH]cn1)NC(=O)OCc1ccccc1)NCC(c1ccccc1)c1ccccc1 [Example 5] : 1.6

Form field IC50, entry CC(CNC(=O)CN(Cc1ccc(OCc2ccccc2)cc1)C(=O)[C@H](Cc1c[nH]cn1)NC(=O)NCc1ccccc1)c1ccccc1 (stereo partly shown) [Example 6] : 0.5

Form field IC50, entry CC(CNC(=O)CN(Cc1ccc(OCc2ccccc2)cc1)C(=O)[C@H](Cc1c[nH]cn1)NC(=O)OCc1ccccc1)c1ccccc1 (stereo partly shown) [Example 4] : 0.15

Form field IC50, entry O=C(CN(Cc1ccc(Cl)cc1)C(=O)[C@H](Cc1c[nH]cn1)NC(=O)OCc1ccccc1)NCCOCc1ccccc1 [Example 3] : 2.8

###

For each record, write down the corresponding log10(IC50).
Molecular target: SF9 affinity purified rat farnesyl protein transferase (Rattus norvegicus, UniProt Q02293+Q04631)
Construct: made in house; host or cells: Sf9 insect cells (baculovirus system inferred from b7)
Test: PFT inhibitory activity (radiolabeled farnesyl pyrophosphate, streptavidin bead assay)
Format: biochemical
Details: HEPES buffer pH 7.4 containing 5 mM potassium phosphate; read-out: IC50 (μM) 5 mM K3 PO4 -2
Please be aware that the numbers have been log10-transformed from IC50 in µM.

Form field log10(IC50), entry CC(CNC(=O)CN(Cc1ccccc1)C(=O)[C@H](Cc1c[nH]cn1)NC(=O)OCc1ccccc1)c1ccccc1 (some centres unmarked) [Example 23] : -1.66

Form field log10(IC50), entry CC(C)(CNC(=O)CN(Cc1ccc(OCc2ccccc2)cc1)C(=O)[C@H](Cc1c[nH]cn1)NC(=O)OCc1ccsc1)c1ccccc1 [Example 54] : -2.92

Form field log10(IC50), entry CCC(CC)(CNC(=O)CN(Cc1ccc(OCc2ccccc2)cc1)C(=O)[C@H](Cc1cnc[nH]1)NC(=O)OCc1ccccc1)c1ccccc1 [Example 25] : -1.49

Form field log10(IC50), entry O=C(CN(Cc1ccc(OCc2ccccc2)cc1)C(=O)[C@H](Cc1c[nH]cn1)NC(=O)OCc1ccccc1)NCCOCc1ccccc1 [Example 1] : -0.59

Form field log10(IC50), entry CC(CNC(=O)CN(Cc1ccc(C(F)(F)F)cc1)C(=O)[C@H](Cc1c[nH]cn1)NC(=O)OCc1ccccc1)c1ccccc1 (some centres unmarked) [Example 38] : -1.89

Form field log10(IC50), entry CC(CNC(=O)CN(Cc1ccc(F)cc1)C(=O)[C@H](Cc1c[nH]cn1)NC(=O)OCc1ccccc1)c1ccccc1 (some centres unmarked) [Example 18] : -1.21

Form field log10(IC50), entry CC(CNC(=O)CN(Cc1ccc(OCc2ccccc2)cc1)C(=O)[C@H](Cc1c[nH]cn1)NC(=O)CCc1ccccc1)c1ccccc1 (some centres unmarked) [Example 17] : -1.07

Form field log10(IC50), entry N#CC(CNC(=O)CN(Cc1ccc(OCc2ccccc2)cc1)C(=O)[C@H](Cc1c[nH]cn1)NC(=O)OCc1ccccc1)c1ccccc1 (some centres unmarked) [Example 45] : -2.62

Form field log10(IC50), entry C[C@@H](Cc1ccccc1)NC(=O)CN(Cc1ccc(OCc2ccccc2)cc1)C(=O)[C@H](Cc1c[nH]cn1)NC(=O)OCc1ccccc1 [Example 11] : -1.09

Form field log10(IC50), entry O=C(CN(Cc1ccc(OCc2ccccc2)cc1)C(=O)[C@H](Cc1c[nH]cn1)NC(=O)OCc1ccccc1)NCCc1ccccc1Br [Example 9] : -0.44

Form field log10(IC50), entry CN(Cc1ccccc1)C(=O)N[C@@H](Cc1c[nH]cn1)C(=O)N(CC(=O)NCC(C)(C)c1ccccc1)Cc1ccc(OCc2ccccc2)cc1 [Example 41] : -2.40

Form field log10(IC50), entry CC(CNC(=O)CN(Cc1ccc(OCc2ccccc2)cc1)C(=O)[C@H](Cc1c[nH]cn1)NC(=O)NCc1ccccc1)c1ccccc1 (some centres unmarked) [Example 6] : -2.66

Form field log10(IC50), entry CC(CNC(=O)CN(Cc1ccc(OCc2ccccc2)cc1)C(=O)[C@H](Cc1c[nH]cn1)NC(=O)OCc1ccccc1)c1ccccc1 (some centres unmarked) [Example 4] : -2.12

Form field log10(IC50), entry COc1ccccc1CN(CC(=O)NCC(C)c1ccccc1)C(=O)[C@H](Cc1c[nH]cn1)NC(=O)OCc1ccccc1 (some centres unmarked) [Example 33] : -2.05
